- Species: Cavia porcellus
- MEASUREMENT_DESCRIPTION: Effect on the contractile force of spontaneously beating atria from Reserpine-treated guinea pigs as percentage variation from the control at concentration of 10E-5 M
- Type: functional
ASSAY_READOUT: Variation (%)
Your answer should be a plain number; it is taken to be in %.

Please review the following examples before continuing.
MOLECULE	ASSAY_READOUT	MEASURED_VALUE
CC(C)c1nc(N(C)C)ncc1C(=O)O	Variation	7.13
CN(C)c1ncc(C(=O)O)c(Cc2ccccc2)n1	Variation	15.24
CC(C)c1ccnc(N(C)C)n1	Variation	-8.84

Quote Variation reported for `CCc1nc(N(C)C)ncc1C(=O)O` please.
4.47

Identify the reported Variation for the following entry. `CN(C)c1nccc(C(C)(C)C)n1`
-5.56

For the molecule `CCOC(=O)c1cnc(N(C)C)nc1C(C)(C)C` , give its measured Variation value.
-12.52

Supply measured Variation of `COCc1ccnc(N(C)C)n1` in your reply.
0

Provide one value: measured Variation of `CN(C)c1nccc(Cc2ccccc2)n1`
9.18

Let me know recorded Variation for Cc1[nH]c(=O)c(C#N)cc1-c1ccncc1 [MILRINONE] , thanks.
16.31

Fill in reported Variation for this entry: Nc1cc(-c2ccncc2)c[nH]c1=O [INAMRINONE]
0.52

Give a short answer stating reported Variation for `CN(C)c1ncc(C(=O)O)c(C(C)(C)C)n1` .
9.67

Report measured Variation; entry is `CCOC(=O)c1cnc(N(C)C)nc1C(=O)OCC`
0.54

Please report Variation for the following molecule: `CCOC(=O)c1cnc(N(C)C)nc1CC`
-39.54

Note Variation for the molecule shown: `Cc1nc(N(C)C)ncc1C(=O)O`
5.18
